Record form. Attribute: viability, T/C. Fill in for each entry.
- Tested on: 422866-222-R5-J1-PDC complex spheroids viability;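 also: spheroids exposed to compounds for 7 days; 100% = DMSO vehicle control viability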
- experiment-summary: Anticancer human tumor 422866-222-R5-J1-PDC patient-derived pancreatic adenocarcinoma cell line growth inhibition [RAS]
- cond: second compound 0.003 µM; first compound 0.0316 µM; active compounds read low
Answers are plain numbers, in %.

Consider the reported viability, T/C for these compounds:
- compound: "O=C(c1ccc(F)c(F)c1Nc1ccc(I)cc1F)N1CC(O)([C@@H]2CCCCN2)C1 + CCn1c(-c2cccnc2C(C)OC)c2c3cc(ccc31)N1CCOC(CC(NC(=O)C(C(C)C)N(C)C(=O)C3(F)CCN(C(=O)C#CC(C)(C)N(C)C)CC3)C(=O)N3CCCC(N3)C(=O)OCC(C)(C)C2)C1"
  result: 16.9
- compound: "C=CC(=O)Nc1cc(Nc2nccc(-c3cn(C)c4ccccc34)n2)c(OC)cc1N(C)CCN(C)C + CCn1c(-c2cccnc2C(C)OC)c2c3cc(ccc31)N1CCOC(CC(NC(=O)C(C(C)C)N(C)C(=O)C3(F)CCN(C(=O)C#CC(C)(C)N(C)C)CC3)C(=O)N3CCCC(N3)C(=O)OCC(C)(C)C2)C1"
  result: 23.7
- compound: "CC1(O)CCCC1n1c(=O)c(C(F)F)cc2cnc(NC3CCN(S(C)(=O)=O)CC3)nc21 (centres undefined) + CCn1c(-c2cccnc2C(C)OC)c2c3cc(ccc31)N1CCOC(CC(NC(=O)C(C(C)C)N(C)C(=O)C3(F)CCN(C(=O)C#CC(C)(C)N(C)C)CC3)C(=O)N3CCCC(N3)C(=O)OCC(C)(C)C2)C1"
  result: 24.8

Prompt: Tell me its viability, T/C on 422866-222-R5-J1-PDC complex spheroids viability: C=CC(=O)N1CCN(c2nc(OCC3CCCN3C)nc3c(F)c(-c4nc(N)cc(C)c4C(F)(F)F)c(Cl)cc23)C(C)C1 (centres undefined) + CCn1c(-c2cc(N3CCN(C)CC3)cnc2C(C)OC)c2c3cc(ccc31)-c1csc(n1)CC(NC(=O)C1CC1C)C(=O)N1CCCC(N1)C(=O)OCC(C)(C)C2
Response: 19.8

Values from PubChem BioAssay AID2060901
